percent inhibition of viability reference
# System: KHYG-1 (IL-2 2.5 ng/mL)
# assay explanation: percent inhibition of viability; higher = more inhibition;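 further: normalised to DMSO-only wells as negative and benzethonium chloride as positive control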
# settings: 72 h; 1000 nM
Dear colleague, please return just the value in %, with no unit written.

Here are 5 compounds together with their reported answers.
compound: Cc1cc(Nc2cc(N3CCN(C)CC3)nc(/C=C/c3ccccc3)n2)n[nH]1 [ENMD-2076] (max concentration tested 10000 nM)
experimental target: KHYG-1 (IL-2 2.5 ng/mL)
units: %
percent inhibition of viability: 79.3
//
compound: CC(C)n1nc(-c2ccc3oc(N)nc3c2)c2c(N)ncnc21 [INK128] (max concentration tested 1000 nM)
experimental target: KHYG-1 (IL-2 2.5 ng/mL)
units: %
percent inhibition of viability: 83.9
//
compound: COc1ccc(COc2cc3oc(=O)c4cc(C(C)O)ccc4c3cc2OC)cc1 (stereo unspecified) [Palomid-529] (max concentration tested 10000 nM)
experimental target: KHYG-1 (IL-2 2.5 ng/mL)
units: %
percent inhibition of viability: 9.18
//
compound: C[C@]12C=CC(=O)C=C1CC[C@@H]1[C@@H]2C(=O)C[C@@]2(C)[C@H]1CC[C@]2(O)C(=O)CO [Prednisone] (max concentration tested 10000 nM)
experimental target: KHYG-1 (IL-2 2.5 ng/mL)
units: %
percent inhibition of viability: 1.48
//
compound: CNCc1ccc(-c2[nH]c3cc(F)cc4c3c2CCNC4=O)cc1 [Rucaparib] (max concentration tested 10000 nM)
experimental target: KHYG-1 (IL-2 2.5 ng/mL)
units: %
percent inhibition of viability: 4.57

Let's switch to this compound now.
Entry CC(C)(C)Cn1c(N)nc2ccc(-c3[nH]c(C(C)(C)C)nc3-c3ccc(F)cc3)nc21 [Ralimetinib] (max concentration tested 10000 nM) ; percent inhibition of viability = 1.06

###

# Test system: DERL-7 (IL-2 2.5 ng/mL)
# assay explanation: percent inhibition of viability; higher = more inhibition
# settings: 72 h; 100 nM
percent inhibition of viability reference
Dear colleague, please return just the value in %, with no unit written.

compound: O=C(NOC[C@H](O)CO)c1ccc(F)c(F)c1Nc1ccc(I)cc1F (max concentration tested 1000 nM)
percent inhibition of viability (%): 22.4

compound: Cn1cncc1[C@@](N)(c1ccc(Cl)cc1)c1ccc2c(c1)c(-c1cccc(Cl)c1)cc(=O)n2C [Tipifarnib] (max concentration tested 10000 nM)
percent inhibition of viability (%): 50.5

Entry CC(C)C[C@H](NC(=O)[C@H](CCc1ccccc1)NC(=O)CN1CCOCC1)C(=O)N[C@@H](Cc1ccccc1)C(=O)N[C@@H](CC(C)C)C(=O)[C@@]1(C)CO1 [Carfilzomib] (max concentration tested 1000 nM) ; percent inhibition of viability = 101

Entry O=NN(CCCl)C(=O)NC1CCCCC1 [Lomustine] (max concentration tested 10000 nM) ; percent inhibition of viability = -2.85

Entry CCC1=C[C@@H]2CN(C1)Cc1c([nH]c3ccccc13)[C@@](C(=O)OC)(c1cc3c(cc1OC)N(C)[C@H]1[C@@](O)(C(=O)OC)[C@H](OC(C)=O)[C@]4(CC)C=CCN5CC[C@]31[C@@H]54)C2 [Vinorelbine] (max concentration tested 10000 nM) ; percent inhibition of viability = 98.5

###

# System: NK-92 (IL-2 2.5 ng/mL)
# assay explanation: percent inhibition of viability; higher = more inhibition
# settings: 72 h; 100 nM
percent inhibition of viability reference
Dear colleague, please return just the value in %, with no unit written.

Here are 4 compounds together with their reported answers.
compound: CC(C)C[C@H](NC(=O)[C@@H](COC(C)(C)C)NC(=O)[C@H](Cc1ccc(O)cc1)NC(=O)[C@H](CO)NC(=O)[C@H](Cc1c[nH]c2ccccc12)NC(=O)[C@H](Cc1cnc[nH]1)NC(=O)[C@@H]1CCC(=O)N1)C(=O)N[C@@H](CCCNC(=N)N)C(=O)N1CCC[C@H]1C(=O)NNC(N)=O [Goserelin] (max concentration tested 10000 nM)
percent inhibition of viability / %: -7.22
--
compound: COc1cc2c(cc1-c1c(C)noc1C)ncc1[nH]c(=O)n([C@H](C)c3ccccn3)c12 [I-BET151] (max concentration tested 10000 nM)
percent inhibition of viability / %: -33.2
--
compound: Cc1c(NC(=O)OC[C@@H]2COCCN2)cn2ncnc(Nc3ccc4c(cnn4Cc4cccc(F)c4)c3)c12 (max concentration tested 10000 nM)
percent inhibition of viability / %: 7.56
--
compound: O=c1ncn2nc(Sc3ccc(F)cc3F)ccc2c1-c1c(Cl)cccc1Cl [VX 745] (max concentration tested 10000 nM)
percent inhibition of viability / %: -9.85

Let's switch to this compound now.
Entry CC(C)n1nc(-c2ccc3oc(N)nc3c2)c2c(N)ncnc21 [INK128] (max concentration tested 1000 nM) ; percent inhibition of viability = 60.8

###

# Test system: KHYG-1 (IL-2 2.5 ng/mL)
# assay explanation: percent inhibition of viability; higher = more inhibition
# settings: 72 h; 100 nM
readout label: percent inhibition of viability (%)
Dear colleague, please return just the value in %, with no unit written.

Here are 5 compounds together with their reported answers.
compound: Cc1nc(Nc2ncc(C(=O)Nc3c(C)cccc3Cl)s2)cc(N2CCN(CCO)CC2)n1 [Dasatinib] (max concentration tested 1000 nM)
units: %
percent inhibition of viability: 4.68
//
compound: Cc1ccc(NC(=O)c2ccc(CN3CC[C@H](N(C)C)C3)c(C(F)(F)F)c2)cc1Nc1nccc(-c2cncnc2)n1 [Bafetinib] (max concentration tested 1000 nM)
units: %
percent inhibition of viability: 7.43
//
compound: COc1cc2nccc(Oc3ccc(NC(=O)C4(C(=O)Nc5ccc(F)cc5)CC4)cc3)c2cc1OC [Cabozantinib] (max concentration tested 1000 nM)
units: %
percent inhibition of viability: 3.42
//
compound: CC[C@H](CO)Nc1nc(NCc2ccccc2)c2ncn(C(C)C)c2n1 [Seliciclib] (max concentration tested 10000 nM)
units: %
percent inhibition of viability: -4.34
//
compound: Nc1cccc2c1CN(C1CCC(=O)NC1=O)C2=O (stereo unspecified) [Lenalidomide] (max concentration tested 100000 nM)
units: %
percent inhibition of viability: 0.35

Let's switch to this compound now.
Item: CO[C@@]12[C@H](COC(N)=O)C3=C(C(=O)C(C)=C(N)C3=O)N1C[C@@H]1N[C@@H]12 [Mitomycin C] (max concentration tested 10000 nM) | System: KHYG-1 (IL-2 2.5 ng/mL) | percent inhibition of viability: -3.76

###

# System: normal primary NK cells, pool 3 (3 donors) (IL-2 2.5 ng/mL)
# assay explanation: percent inhibition of viability; higher = more inhibition
# settings: 72 h; 100 nM
percent inhibition of viability reference

compound: C[C@@H](Oc1ccc2[nH]nc(/C=C/c3cnn(CCO)c3)c2c1)c1c(Cl)cncc1Cl (max concentration tested 1000 nM)
observed: 63.4%

compound: COc1ccc(-c2nc(N3CCOCC3)c3sc(CN(C)c4ncc(C(=O)NO)cn4)cc3n2)cn1 [CUDC-907] (max concentration tested 10000 nM)
observed: 97.2%

compound: CN1CCc2c(c3ccccc3n2Cc2ccc(C(=O)NO)cc2)C1 [Tubastatin A] (max concentration tested 10000 nM)
observed: -0.85%

compound: C/C(=C\c1csc(C)n1)[C@@H]1C[C@@H]2O[C@]2(C)CCC[C@H](C)[C@H](O)[C@@H](C)C(=O)C(C)(C)[C@@H](O)CC(=O)N1 [Ixabepilone] (max concentration tested 1000 nM)
observed: -11.3%

Let's switch to this compound now.
Entry CO[C@H]1/C=C\C=C(/C)C(=O)NC2=CC(=O)C(NCCN(C)C)=C(C[C@@H](C)C[C@H](OC)[C@H](O)[C@@H](C)/C=C(\C)[C@@H]1OC(N)=O)C2=O [Alvespimycin] (max concentration tested 1000 nM) ; percent inhibition of viability = 46.3%

###

# Test system: NK-92 (IL-2 2.5 ng/mL)
# assay explanation: percent inhibition of viability; higher = more inhibition
# settings: 72 h; 1 nM
readout label: percent inhibition of viability
Remember to quote the unit after the number.

Here are 2 compounds together with their reported answers.
compound: C[C@@H]1COC(Nc2ccc3ncnc(Nc4ccc(OCc5nccs5)c(Cl)c4)c3c2)=N1 [Varlitinib] (max concentration tested 10000 nM)
percent inhibition of viability: -5.14%

compound: c1ccc([C@H]2CN3CCSC3=N2)cc1 [Levamisole] (max concentration tested 10000 nM)
percent inhibition of viability: -11.8%

Let's switch to this compound now.
Entry COc1ccc(-c2cc3c(C)nc(N)nc3n([C@H]3CC[C@H](OCCO)CC3)c2=O)cn1 (max concentration tested 10000 nM) ; percent inhibition of viability = 16.6%

###

# System: normal primary NK cells, pool 1 (3 donors), resting (IL-2 0 ng/mL)
# assay explanation: percent inhibition of viability; higher = more inhibition
# settings: 72 h; 100 nM
readout label: percent inhibition of viability (%)
Dear colleague, please return just the value in %, with no unit written.

compound: CS(=O)(=O)c1ccc(C2=C(c3ccccc3)C(=O)OC2)cc1 [Rofecoxib] (max concentration tested 10000 nM)
observed: -34.2
//
compound: C1=N/C2=N/c3ccc(OCCN4CCCC4)c(c3)COC/C=C/COCc3cccc(c3)C(=C1)N2 [Pacritinib] (max concentration tested 10000 nM)
observed: -1.15
//
compound: CN(C)Cc1ccc(S(=O)(=O)n2ccc(/C=C/C(=O)NO)c2)cc1 [Resminostat] (max concentration tested 10000 nM)
observed: 20.3
//
compound: C[C@@H]1CN(Cc2ccc(F)cc2)[C@@H](C)CN1C(=O)c1cc2c(C(=O)C(=O)N(C)C)cn(C)c2cc1Cl [Talmapimod] (max concentration tested 10000 nM)
observed: 17.6
//
compound: CC(C)N(CCCNC(=O)Nc1ccc(C(C)(C)C)cc1)C[C@H]1O[C@@H](n2cc(Br)c3c(N)ncnc32)[C@H](O)[C@@H]1O [SGC0946] (max concentration tested 10000 nM)
observed: 5.19

Entry Cc1ncc(-c2ccnc(Nc3ccc(S(C)(=O)=O)cc3)n2)n1C(C)C [AZD-5438] (max concentration tested 10000 nM) ; percent inhibition of viability = -42.6
